target: Vasopressin receptor (Rattus norvegicus) (UniProt P48974+P30560+Q00788); assay: Antivasopressor potency in terms of blood pressure response in rats anesthetized with urethane and pretreated with phenoxybenzamine; assay type: functional
Observable: ED
Just the number plus its unit, please.

Given item CCOc1ccc(C[C@H]2NC(=O)CC3(CCCCC3)SSC[C@@H](C(=O)N3CCC[C@H]3C(=O)N[C@@H](CCCN=C(N)N)C(=O)NCC(=O)NCCN)NC(=O)[C@H](CC(N)=O)NC(=O)[C@H](C(C)C)NC(=O)[C@H](Cc3ccccc3)NC2=O)cc1 , the value recorded as its ED is 0.32 nM/kg

====

molecular target: Vasopressin receptor (Rattus norvegicus) (UniProt P48974+P30560+Q00788); test: Antiantidiuretic potency in terms of measuring changes in urine flow in water-loaded rats under ethanol anesthesia; type: functional
Use MET when the recorded ED is no lower than 1 nM/kg; use NOT MET when it is lower.

Molecule | Classification
CCOc1ccc(C[C@H]2NC(=O)CC3(CCCCC3)SSC[C@H](C(=O)NCCNC(=O)[C@@H](CCCN=C(N)N)NC(=O)[C@H](N)CCCN=C(N)N)NC(=O)[C@@H](CC(N)=O)NC(=O)[C@H](C(C)C)NC(=O)[C@@H](Cc3ccccc3)NC2=O)cc1 | MET

Query: Has CCOc1ccc(C[C@H]2NC(=O)CC3(CCCCC3)SSC[C@H](C(=O)N[C@H](CCCN=C(N)N)C(=O)NCC(=O)NCCNC(=O)[C@H](N)CCCN=C(N)N)NC(=O)[C@@H](CC(N)=O)NC(=O)[C@H](C(C)C)NC(=O)[C@@H](Cc3ccccc3)NC2=O)cc1 a recorded ED greater than or equal to 1 nM/kg?
Response: NOT MET

Query: Has CCOc1ccc(C[C@H]2NC(=O)CC3(CCCCC3)SSC[C@@H](C(=O)N3CCC[C@H]3C(=O)NCCN)NC(=O)[C@H](CC(N)=O)NC(=O)[C@H](C(C)C)NC(=O)[C@H](Cc3ccccc3)NC2=O)cc1 a recorded ED greater than or equal to 1 nM/kg?
Response: MET
